# System: Pseudomonas aeruginosa
# protocol-summary: In vitro antimicrobial activity against Pseudomonas aeruginosa 1592 E
# Format: functional
assay-metric: MIC (µg/mL)

INSERT INTO assay_data (molecule, study_system, measurement) VALUES
  ('CO/N=C(/C(=O)N[C@@H]1C(=O)N2C(C(=O)[O-])=C(C[n+]3cccc(-c4cc(CO)nn4C)c3)CS[C@H]12)c1csc(N)n1', 'Pseudomonas aeruginosa', 12.5),
  ('CO/N=C(/C(=O)N[C@@H]1C(=O)N2C(C(=O)[O-])=C(C[n+]3cccc(-c4cc[nH]n4)c3)CS[C@H]12)c1csc(N)n1', 'Pseudomonas aeruginosa', 12.5),
  ('CO/N=C(/C(=O)N[C@@H]1C(=O)N2C(C(=O)[O-])=C(C[n+]3cccc(-c4cc(C(N)=O)nn4C)c3)CS[C@H]12)c1csc(N)n1', 'Pseudomonas aeruginosa', 12.5),
  ('CO/N=C(/C(=O)N[C@@H]1C(=O)N2C(C(=O)[O-])=C(C[n+]3cccc(-c4cc(C(N)=O)nn4CCO)c3)CS[C@H]12)c1csc(N)n1', 'Pseudomonas aeruginosa', 12.5),
  ('CO/N=C(/C(=O)NC1C(=O)N2C(C(=O)[O-])=C(C[n+]3cccc4c3CCC4)CSC12)c1csc(N)n1 (centres undefined)', 'Pseudomonas aeruginosa', 1.56),
  ('CO/N=C(/C(=O)N[C@@H]1C(=O)N2C(C(=O)[O-])=C(C[n+]3cccc(-c4cc(CO)nn4CCO)c3)CS[C@H]12)c1csc(N)n1', 'Pseudomonas aeruginosa', 12.5),
  ('CO/N=C(/C(=O)N[C@@H]1C(=O)N2C(C(=O)[O-])=C(C[n+]3cccc(-c4cc(N)n(CCO)n4)c3)CS[C@H]12)c1csc(N)n1', 'Pseudomonas aeruginosa', 6.25),
  ('CO/N=C(/C(=O)N[C@@H]1C(=O)N2C(C(=O)[O-])=C(C[n+]3cccc(-c4cc(C)[nH]n4)c3)CS[C@H]12)c1csc(N)n1', 'Pseudomonas aeruginosa', 3.12),
  ('CO/N=C(/C(=O)N[C@@H]1C(=O)N2C(C(=O)[O-])=C(C[n+]3cccc(-c4cc(N)[nH]n4)c3)CS[C@H]12)c1csc(N)n1', 'Pseudomonas aeruginosa', 1.56);

Every entry's value here was drawn from ChEMBL document CHEMBL1132901.
